Recorded values, source the RNAGym collection of RNA variant scans (doi:10.7554/elife.90254).

B1: OR4K15 (parent)
chain: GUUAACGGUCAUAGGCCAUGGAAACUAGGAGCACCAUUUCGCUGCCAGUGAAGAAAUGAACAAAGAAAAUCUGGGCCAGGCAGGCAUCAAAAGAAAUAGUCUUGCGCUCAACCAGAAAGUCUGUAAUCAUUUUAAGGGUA

Variants of: B1
test.name: self-cleavage, relative activity (ratio to wild type); higher = more cleavage; in vitro, sequencing; the parent is a self-cleaving ribozyme
Documented self-cleavage across a set of variants
Answer field: number only, no words.

The following variants have reported results that may help.
construct.sequence	quantitative.result
GUUAACGGUCAUAGGCCAUGGAAACUAGGAGCACCAUUUCGCUGCCAGUGAAGAAAUGAACAAAGAAAAUCAGGGCCAGGCUGGCAUCAAAAGAAAUAGUCUUGCGCUCAACCAGAAAGUCUGUAAUCAUUUUAAGGGUA [U72A A82U]	0.15
GUUAACGGUCAUAGGCCAUGGAAACUAGGAGCACCAUUCCGCUGCCAGUGAAGAAAUGAACAAUGAAAAUCUGGGCCAGGCAGGCAUCAAAAGAAAUAGUCUUGCGCUCAACCAGAAAGUCUGUAAUCAUUUUAAGGGUA [U39C A64U]	1.77
GUUAACGGACAUAGGCCAUGGAAACUAGGAGCGCCAUUUCGCUGCCAGUGAAGAAAUGAACAAAGAAAAUCUGGGCCAGGCAGGCAUCAAAAGAAAUAGUCUUGCGCUCAACCAGAAAGUCUGUAAUCAUUUUAAGGGUA [U9A A33G]	0.9
GUUAACGGUCAUAGGCCAUGGAAACUAGGAGCACCAUUUCGCUGCCAGUGAAGGAAUGUACAAAGAAAAUCUGGGCCAGGCAGGCAUCAAAAGAAAUAGUCUUGCGCUCAACCAGAAAGUCUGUAAUCAUUUUAAGGGUA [A54G A59U]	0.71
GUUAACGGUCAUAGGCCAUGGAAACUAGGAGCACCAUUUCGCUGCCAGUGAAGAAAUGAACAAAGAAAAUCUAGGCCAGGCAGGCAUCAAAGGAAAUAGUCUUGCGCUCAACCAGAAAGUCUGUAAUCAUUUUAAGGGUA [G73A A92G]	0.2

## Input Item under review: GUUAACGGUCAUAGGCCAUGGAAACUAGGAGCACCAUUUCGCUGCCAGUGAAGAAAUGAACAAAGAAAAUCUGGGCCAGGCAGGCAUCGAAAGAAAUAGUCUUGCGCUCAACCAGAAAGUCUGUAAUCAUUUUAAGGGCA [A89G U139C] . Reported self-cleavage?
## Output 1.02

## Input Item under review: GUUAACGGUCAUAGGCCAUGGAAACUAGGAGCACCAUUUCGCUGCCAGUGAAGAAAUGAACGAAGAAAAUCUGGGCCAGGCAGACAUCAAAAGAAAUAGUCUUGCGCUCAACCAGAAAGUCUGUAAUCAUUUUAAGGGUA [A62G G84A] . Reported self-cleavage?
## Output 1.73

## Input Item under review: GUUAACGGUCAUAGGCCAUGGAAACUAGGAGCACCAUUUCGCUGCCAGUGAAGAAAUGAACAAAGAAAAUCUGGGCCAGGCAGGCAUCAAAAGAAAUAGUCUUGCGCUCAACCAGAAAGUCUGUUACCAUUUUAAGGGUA [A125U U127C] . Reported self-cleavage?
## Output 1.28

## Input Item under review: GUUAACGGUCAUAGGCCAUGGAAACUAGGAGCACCAUUACGCUGCCAGUGAAGAAAUGAACAAAGAAAAUCUGGGCCAGGCAGGCAUCAAAAGAAAUAGUCUUGCGCUCAACCAGAAAGUCUGUAAUCAUUUUUAGGGUA [U39A A134U] . Reported self-cleavage?
## Output 2.44

## Input Item under review: GUUAACGGUCAUAGGCCAUGGAAACUAGGAGCACCAUUUCGCUGCCAGUGAAGAAAUGAACAAAGAAAAUCUGGGCCAGGCCGGCAUCAAAAGGAAUAGUCUUGCGCUCAACCAGAAAGUCUGUAAUCAUUUUAAGGGUA [A82C A94G] . Reported self-cleavage?
## Output 0.19
